Test system: VIOTR
measurement protocol: Post-emergence action against VIOTR
Assay type: in vivo, Viola tricolor
assay conditions: post-emergence, dosage 80 g/ha
measured endpoint: Post-emergence action against VIOTR

Here CCn1nnnc1NC(=O)c1ccc(C(F)(F)F)c(C(=O)COC)c1Cl was tested on VIOTR, and its Post-emergence action against VIOTR came to 100

Hi there! I need Post-emergence action against VIOTR for each item below, if you can.
1. CCn1nnnc1NC(=O)c1ccc(C(F)F)c(C(C)=O)c1Cl
2. Cc1c(C(=O)Nc2nnnn2C)ccc(C(F)(F)F)c1C(=O)CCl
3. CCn1nnnc1NC(=O)c1ccc(C(F)(F)F)c(C(=O)C(F)(F)F)c1Cl

100
90
100

Hi there! I need Post-emergence action against VIOTR for each item below, if you can.
1. CCCC(=O)c1c(C(F)(F)F)ccc(C(=O)Nc2nnnn2CC)c1Cl
2. CCCn1nnnc1NC(=O)c1ccc(SC)c(C(=O)C2CC2)c1Cl

[100, 100]

Here CCCn1nnnc1NC(=O)c1ccc(C(F)(F)F)c(C(=O)C(C)C)c1Cl was tested on VIOTR, and its Post-emergence action against VIOTR came to 100
